The measured values listed here are drawn from PubChem BioAssay (NCI).

tested on: HOP-92 NSCLC; test: NCI tumour cell line growth inhibition, 48 h
The entries below come with measured TGI values attached.
measurement type: TGI (µM)

| compound | measurement type | result unit | inequality operator | observed measurement |
| --- | --- | --- | --- | --- |
| CCOC(=O)c1cn(Cc2ccccc2)c(=O)n1Cc1ccccc1 | TGI | µM | > | 100 |
| COc1cc(C(=O)c2cc3c(cc2C)OCO3)cc(OC)c1OC | TGI | µM | = | 48.6 |
| O=C(NC1=NC2C=CC([N+](=O)[O-])=CC2S1)C(=O)Nn1c(=S)[nH]c2ccccc2c1=O (stereo unspecified) | TGI | µM | > | 100 |
| O=C(c1cccnc1)N1N=C(c2ccc(Cl)cc2)CC1(O)c1cc(F)c(Cl)cc1Cl (stereo unspecified) | TGI | µM | = | 59.8 |
| CC#C[I+]c1ccccc1 | TGI | µM | = | 30.8 |
| COc1cc([N+](=O)[O-])ccc1NC1=CC(=O)CCC1 | TGI | µM | > | 100 |
| NS(=O)(=O)c1ccc(CCN=C=S)cc1 | TGI | µM | = | 3.36 |
| COc1ccc(/C=C/c2n[nH]c3ccc(N4CCOC4=O)cc23)cc1 | TGI | µM | = | 9.09 |
| COP1(=O)Oc2ccccc2C(=O)C(C(F)(F)F)(C(F)(F)F)O1 (stereo unspecified) | TGI | µM | > | 100 |
| N#Cc1cc([N+](=O)[O-])ccc1NC(=O)C(=O)C(C(=O)/C=C/c1ccccc1)C1OC(=O)c2ccccc21 (stereo unspecified) | TGI | µM | > | 100 |
| CCOC(=O)C1=c2[nH]c3cccc4cccc(c43)n2C=C(C(C)=O)C1CC(C)=O (stereo unspecified) | TGI | µM | > | 100 |
| CNC(=O)CCCN(C)C(=O)CCCCC(=O)N(C)C | TGI | µM | > | 100 |
| COc1ccc2c(c1)CCC1C2CC[C@]2(C)/C(=N/OC(=O)Cc3ccccc3)CCC12 (stereo partly specified) | TGI | µM | = | 81 |
| CN(C)CCCc1c[nH]c2ccccc12 | TGI | µM | > | 100 |
| CCOC(=O)CCC(NC(=O)c1ccc(OCc2nc3ccccc3n3cccc23)cc1)C(=O)OCC (stereo unspecified) | TGI | µM | > | 100 |
| COc1cc2c(c3c1c(=O)c1ccccc1n3C)C=CC1(CCCCC1)O2 | TGI | µM | = | 9.77 |
| CCCCCCCC[N+](C)(CCCCCCCC)CCCCCCCC | TGI | µM | = | 0.803 |
| COc1cc2nc(Nc3cccc(F)c3)nc(Nc3cc(C)[nH]n3)c2cc1OC | TGI | µM | = | 3.21 |
| Cc1[nH]c(=O)[nH]c(=O)c1CO | TGI | µM | > | 100 |
| NCCC(O)(P(=O)(O)O)P(=O)(O)O | TGI | µM | > | 100 |
| CCOC(=O)c1sc(=S)c2c(C(=O)OCC)c(C(=O)OCC)sc2c1C(=O)OCC | TGI | µM | = | 23 |
| Cc1ccc(-c2csc(=Nc3c(C)n(C)n(-c4ccccc4)c3=O)n2CCO)cc1 | TGI | µM | > | 100 |
| S=C(S)N1CCN(c2ccc(Cl)c(Cl)c2)CC1 | TGI | µM | = | 75.3 |
| CC1(C)CN=C(Nc2cccc(C(F)(F)F)c2)S1 | TGI | µM | > | 100 |
| CC(C)(C)C(=O)C(C(c1ccccc1)N1CCOCC1)N1CCOCC1 (stereo unspecified) | TGI | µM | > | 100 |
| COc1ccccc1Cn1nc(OC)c2cc([N+](=O)[O-])ccc21 | TGI | µM | = | 33.8 |
| CC(=O)N[C@H]1CCCC[C@@H]1OC(C)=O | TGI | µM | > | 100 |
| COc1ccccc1CNCCCN1C(=O)c2ccc3c4c(ccc(c24)C1=O)C(=O)N(CCCNCCCN)C3=O | TGI | µM | = | 4.88 |
| OCC12C3C4C1C1C2C3C41CO (stereo unspecified) | TGI | µM | > | 100 |
| O=[N+]([O-])c1nccn1COCCF | TGI | µM | > | 100 |
| OCCN(CCO)c1ccc2c(c1)Cc1ccccc1-2 | TGI | µM | = | 73.1 |
